# measured_target: GABA-A receptor; alpha-5/beta-3/gamma-2 (Homo sapiens, UniProt P18507+P28472+P31644)
# Sequence (P18507 whole entry): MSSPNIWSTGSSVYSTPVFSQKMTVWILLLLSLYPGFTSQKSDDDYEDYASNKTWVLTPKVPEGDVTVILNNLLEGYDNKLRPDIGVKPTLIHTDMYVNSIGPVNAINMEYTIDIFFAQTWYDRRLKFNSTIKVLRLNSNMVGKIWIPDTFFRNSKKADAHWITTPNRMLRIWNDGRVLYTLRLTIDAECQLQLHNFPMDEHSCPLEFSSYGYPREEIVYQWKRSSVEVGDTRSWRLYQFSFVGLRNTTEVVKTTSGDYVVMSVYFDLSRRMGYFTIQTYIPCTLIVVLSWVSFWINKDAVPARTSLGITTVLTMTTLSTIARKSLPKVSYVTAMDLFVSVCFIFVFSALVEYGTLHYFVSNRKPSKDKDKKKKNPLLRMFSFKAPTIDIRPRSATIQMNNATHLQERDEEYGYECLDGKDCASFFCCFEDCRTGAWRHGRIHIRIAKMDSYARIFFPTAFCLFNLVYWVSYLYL
# Sequence (P28472 whole entry): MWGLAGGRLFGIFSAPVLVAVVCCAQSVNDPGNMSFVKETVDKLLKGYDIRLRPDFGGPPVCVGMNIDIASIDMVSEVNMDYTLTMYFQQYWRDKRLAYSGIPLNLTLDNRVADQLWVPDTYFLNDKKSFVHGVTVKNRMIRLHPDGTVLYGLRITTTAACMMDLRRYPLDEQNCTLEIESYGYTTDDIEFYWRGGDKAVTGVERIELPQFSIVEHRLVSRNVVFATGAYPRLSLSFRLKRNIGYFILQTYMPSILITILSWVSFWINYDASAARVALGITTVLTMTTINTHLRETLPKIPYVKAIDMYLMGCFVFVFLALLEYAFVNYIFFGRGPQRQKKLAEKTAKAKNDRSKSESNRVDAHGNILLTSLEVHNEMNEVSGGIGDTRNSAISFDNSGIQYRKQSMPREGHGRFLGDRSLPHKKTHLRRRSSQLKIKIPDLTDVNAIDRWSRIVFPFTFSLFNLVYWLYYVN
# Sequence (P31644 whole entry): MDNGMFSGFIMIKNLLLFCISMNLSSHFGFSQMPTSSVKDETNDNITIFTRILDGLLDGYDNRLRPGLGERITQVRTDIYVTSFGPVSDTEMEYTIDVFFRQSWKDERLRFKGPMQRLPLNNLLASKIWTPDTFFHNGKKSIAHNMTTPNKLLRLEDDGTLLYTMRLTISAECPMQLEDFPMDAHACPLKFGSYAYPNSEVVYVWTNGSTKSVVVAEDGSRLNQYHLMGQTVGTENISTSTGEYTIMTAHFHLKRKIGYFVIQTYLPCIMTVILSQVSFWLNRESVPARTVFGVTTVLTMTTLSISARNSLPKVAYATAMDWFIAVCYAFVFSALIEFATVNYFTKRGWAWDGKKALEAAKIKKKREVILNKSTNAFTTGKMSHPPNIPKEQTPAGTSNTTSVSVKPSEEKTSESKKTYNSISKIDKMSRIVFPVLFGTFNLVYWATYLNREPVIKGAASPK
# protocol_description: Inhibition of [3H]-Ro- 15-1788 binding to human GABA-A receptor alpha-5-beta-3-gamma-2 subunits
pKi: −log10 of the molar value.
# pKi per record follows
property_name: pKi

1. CC1CC(=O)c2c(SCc3ncn(C)n3)ccc(-c3nccs3)c2C1 (configuration not stated) : 9.00
2. CSc1ccc(-c2ccccn2)c2c1C(=O)CC(C)C2 (configuration not stated) : 8.12
3. CCSc1ccc(-c2ncco2)c2c1C(=O)CC(C)C2 (configuration not stated) : 8.59
4. CC1CC(=O)c2c(SCc3cn[nH]n3)ccc(-c3nccs3)c2C1 (configuration not stated) : 8.59
5. CCSc1ccc(-c2ccccn2)c2c1C(=O)CC(C)C2 (configuration not stated) : 8.72
6. CC1CC(=O)c2c(Sc3cccs3)ccc(-c3ccccn3)c2C1 (configuration not stated) : 9.30
7. CCSc1ccc(-c2cnccn2)c2c1C(=O)CC(C)C2 (configuration not stated) : 8.68
8. COc1nc(CSc2ccc(-c3nccs3)c3c2C(=O)CC(C)C3)ns1 (configuration not stated) : 8.49
9. CCSc1ccc(-c2cccc[n+]2[O-])c2c1C(=O)CC(C)C2 (configuration not stated) : 7.60
10. CCSc1ccc(-c2nccs2)c2c1C(=O)CC(C)C2 (configuration not stated) : 9.00
11. CSc1ccc(-c2ccccn2)c2c1C(=O)CC(C)(C)C2 : 7.72
12. CCSc1ccc(-c2ccccn2)c2c1C(=O)CCC2 : 6.99

---

# measured_target: GABA-A receptor; alpha-1/beta-3/gamma-2 (Homo sapiens, UniProt P14867+P18507+P28472)
# Sequence (P14867 whole entry): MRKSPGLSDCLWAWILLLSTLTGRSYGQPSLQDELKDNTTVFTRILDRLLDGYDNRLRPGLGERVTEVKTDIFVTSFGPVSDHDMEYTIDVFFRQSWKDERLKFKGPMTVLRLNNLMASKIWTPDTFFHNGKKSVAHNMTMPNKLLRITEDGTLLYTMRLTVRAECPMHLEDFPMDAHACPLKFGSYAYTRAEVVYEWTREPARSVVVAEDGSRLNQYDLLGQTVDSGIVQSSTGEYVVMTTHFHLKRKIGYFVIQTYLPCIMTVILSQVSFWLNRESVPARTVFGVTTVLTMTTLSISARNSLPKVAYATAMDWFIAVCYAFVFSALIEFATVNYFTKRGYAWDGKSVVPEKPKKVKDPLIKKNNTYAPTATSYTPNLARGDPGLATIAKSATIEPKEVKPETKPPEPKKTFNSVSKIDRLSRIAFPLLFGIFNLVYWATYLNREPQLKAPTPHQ
# Sequence (P18507 whole entry): as the sequence (P18507 whole entry) above
# Sequence (P28472 whole entry): as the sequence (P28472 whole entry) above
# protocol_description: Inhibition of [3H]-Ro- 15-1788 binding to recombinant human gamma-aminobutyric-acid A receptor alpha-1-beta-3-gamma-2
# Ki per record follows
property_name: Ki (nM)

1) CC1CC(=O)c2c(Sc3cccs3)ccc(-c3ccccn3)c2C1 (configuration not stated) : 2.3
2) CCSc1ccc(-c2ncco2)c2c1C(=O)CC(C)C2 (configuration not stated) : 37
3) CCSc1ccc(-c2ccccn2)c2c1C(=O)CC(C)C2 (configuration not stated) : 25
4) CC1CC(=O)c2c(SCc3ncn(C)n3)ccc(-c3nccs3)c2C1 (configuration not stated) : 38
5) CSc1ccc(-c2ccccn2)c2c1C(=O)CC(C)(C)C2 : 229
6) CCSc1ccc(-c2cnccn2)c2c1C(=O)CC(C)C2 (configuration not stated) : 11
7) COc1nc(CSc2ccc(-c3nccs3)c3c2C(=O)CC(C)C3)ns1 (configuration not stated) : 40
8) CSc1ccc(-c2ccccn2)c2c1C(=O)CC(C)C2 (configuration not stated) : 63
9) CC1CC(=O)c2c(SCc3cn[nH]n3)ccc(-c3nccs3)c2C1 (configuration not stated) : 92
10) CCSc1ccc(-c2nccs2)c2c1C(=O)CC(C)C2 (configuration not stated) : 5.4

---

# measured_target: GABA-A receptor; alpha-2/beta-3/gamma-2 (Homo sapiens, UniProt P18507+P28472+P47869)
# Sequence (P18507 whole entry): as the sequence (P18507 whole entry) above
# Sequence (P28472 whole entry): as the sequence (P28472 whole entry) above
# Sequence (P47869 whole entry): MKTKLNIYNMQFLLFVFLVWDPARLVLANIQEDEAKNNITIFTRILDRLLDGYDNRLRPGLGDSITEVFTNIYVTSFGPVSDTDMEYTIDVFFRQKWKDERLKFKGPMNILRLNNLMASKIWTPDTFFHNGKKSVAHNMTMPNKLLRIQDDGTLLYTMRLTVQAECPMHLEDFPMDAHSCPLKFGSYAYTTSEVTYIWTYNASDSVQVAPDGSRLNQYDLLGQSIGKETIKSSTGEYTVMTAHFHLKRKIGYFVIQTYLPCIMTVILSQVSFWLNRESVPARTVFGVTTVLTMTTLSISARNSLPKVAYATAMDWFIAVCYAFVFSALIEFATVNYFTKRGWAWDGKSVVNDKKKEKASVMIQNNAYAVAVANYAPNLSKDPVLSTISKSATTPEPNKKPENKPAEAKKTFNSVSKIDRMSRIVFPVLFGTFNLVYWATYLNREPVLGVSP
# protocol_description: Inhibition of [3H]-Ro- 15-1788 binding to recombinant human gamma-aminobutyric-acid A receptor alpha-2-beta-3-gamma-2
Hi! Just check whether Ki is below 30 nM. Below gives 1, equal or above gives -1.

1. CSc1ccc(-c2ccccn2)c2c1C(=O)CC(C)(C)C2 : -1
2. CC1CC(=O)c2c(SCc3cn[nH]n3)ccc(-c3nccs3)c2C1 (stereo unspecified) : -1
3. COc1nc(CSc2ccc(-c3nccs3)c3c2C(=O)CC(C)C3)ns1 (stereo unspecified) : -1
4. CC1CC(=O)c2c(Sc3cccs3)ccc(-c3ccccn3)c2C1 (stereo unspecified) : 1
5. CC1CC(=O)c2c(SCc3ncn(C)n3)ccc(-c3nccs3)c2C1 (stereo unspecified) : 1
6. CCSc1ccc(-c2cnccn2)c2c1C(=O)CC(C)C2 (stereo unspecified) : 1
